- ASSAY_EXPLANATION: Acute toxicity in mice
- Format: in vivo
- TEST_SETTINGS: mouse, in vivo, iv.
PROPERTY: LD50

Exercise: Data request, read-out LD50, for CNC1C(OC)CC(N)C(OC2OC(CN)CCC2N)C1O (centres unmarked) [KA-7038 V]
Key: > 300 mg/kg

Exercise: CNC1C(O)CC(N)C(OC2OC(CN)CCC2N)C1O (centres unmarked) [KA-7038 II] ?
Key: > 300 mg/kg

Exercise: CNC1C(O)C(OC2OC(CN)CCC2N)C(N)C(O)C1OC (centres unmarked) [KA-7038 IV] ?
Key: > 300 mg/kg

Exercise: CNCC1CCC(N)C(OC2C(N)CC(OC)C(NC)C2O)O1 (centres unmarked) [KA-7038 III] ?
Key: > 300 mg/kg

Exercise: CNCC1CCC(N)C(OC2C(N)CC(OC)C(N(C)C(=O)CN)C2O)O1 (centres unmarked) [KA-7038 I] ?
Key: > 100 mg/kg

Origin of measurements: patent US4329426A
